Biological target: CYP168A1 (Pseudomonas aeruginosa, UniProt Q9I107)
Sequence (Q9I107 entry or part of it): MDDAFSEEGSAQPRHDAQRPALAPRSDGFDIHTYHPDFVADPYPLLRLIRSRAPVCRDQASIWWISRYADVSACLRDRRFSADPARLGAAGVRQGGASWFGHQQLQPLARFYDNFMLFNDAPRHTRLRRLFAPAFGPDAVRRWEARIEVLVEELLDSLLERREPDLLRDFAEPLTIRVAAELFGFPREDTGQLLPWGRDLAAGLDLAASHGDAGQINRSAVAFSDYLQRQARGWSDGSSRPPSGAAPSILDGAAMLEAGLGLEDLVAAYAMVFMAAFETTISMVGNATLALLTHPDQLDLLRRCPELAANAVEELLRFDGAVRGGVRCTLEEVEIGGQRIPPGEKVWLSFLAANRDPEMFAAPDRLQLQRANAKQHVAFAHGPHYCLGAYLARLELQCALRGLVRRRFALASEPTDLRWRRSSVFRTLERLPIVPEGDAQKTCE
Experiment: Fatty acid binding studies (spectral titration, type I difference spectra)
Settings: 5 μM CYP168A1, cuvette path length 10 mm
Could you label it Met if measured ΔAmax is 0.3 or higher, and Not met otherwise?

INSERT INTO measurements (compound_smiles, assigned_class) VALUES
  ('CCCCCCCCCCCCCCCC(=O)O', 'Not met'),
  ('CCCCCCCC/C=C\CCCCCCCC(=O)O', 'Not met'),
  ('CCCCCC/C=C\CCCCCCCC(=O)O', 'Not met'),
  ('CCCCC/C=C\C/C=C\CCCCCCCC(=O)O', 'Not met'),
  ('CCCCCCCCCCCCCCCCCC(=O)O', 'Met');

---

Target: CYP168A1 (Pseudomonas aeruginosa)
Experiment: Fatty acid binding studies (spectral titration, type I difference spectra)
Settings: from ΔAmax, 5 μM CYP168A1, path length 10 mm
Listing: Low- to high-spin state change (%) of selected compounds
property-name: Low- to high-spin state change (%)

INSERT INTO measurements (compound_smiles, readout_unit, value) VALUES
  ('CCCCCCCC/C=C\CCCCCCCC(=O)O', '%', 55.4),
  ('CCCCCCCCCCCCCC(=O)O', '%', 22.8),
  ('CCCCC/C=C\C/C=C\CCCCCCCC(=O)O', '%', 28.3),
  ('CCCCCC/C=C\CCCCCCCC(=O)O', '%', 37.0),
  ('CCCCCCCCCCCCCCCCCC(=O)O', '%', 65.6),
  ('CCCCCCCCCCCCCCCC(=O)O', '%', 58.1);

---

Biological target: CYP168A1 (Pseudomonas aeruginosa, UniProt Q9I107)
Assay: Fatty acid binding studies (spectral titration, type I difference spectra)
Conditions: read-out: Ks; 5 μM CYP168A1, 0.1 M Tris-HCl pH 8.1, room temperature; rearranged Morrison equation; mean of four replicates ± SD; listed as oleic acid
Experimental: The absorbance difference spectra from 500 nm to 350 nm were determined after each incremental addition of fatty acid. Ligand saturation curves were constructed from the change in absorbance (ΔApeak-trough) against fatty acid concentration. The dissociation constant for the fatty acid-CYP168A1 complex (Ks) was determined by nonlinear regression (Levenberg-Marquardt algorithm) using a rearrangement of the Morrison equation [14] and the Michaelis-Menten equation. […]. […]
property-name: Kd

INSERT INTO results (compound_smiles, system_name, property_name, value) VALUES
  ('CCCCCCCC/C=C\CCCCCCCC(=O)O', 'CYP168A1 (Pseudomonas aeruginosa, UniProt Q9I107)', 'Kd', '~150 nM');

---

Molecular target: CYP168A1 (Pseudomonas aeruginosa, UniProt Q9I107)
Experiment: Fatty acid binding studies (spectral titration, type I difference spectra)
Settings: read-out: Ks; 5 μM CYP168A1, 0.1 M Tris-HCl pH 8.1, room temperature; rearranged Morrison equation; mean of four replicates ± SD; listed as palmitic acid
property-name: Kd

INSERT INTO assay_data (compound_smiles, system_name, property_name, value) VALUES
  ('CCCCCCCCCCCCCCCC(=O)O', 'CYP168A1 (Pseudomonas aeruginosa, UniProt Q9I107)', 'Kd', '120 nM');

---

Target: CYP168A1 (Pseudomonas aeruginosa)
Assay: Fatty acid binding studies (spectral titration, type I difference spectra)
Details: read-out: Ks; 5 μM CYP168A1, 0.1 M Tris-HCl pH 8.1, room temperature; rearranged Morrison equation; mean of four replicates ± SD
property-name: Kd

INSERT INTO measurements (compound_smiles, system_name, value) VALUES
  ('CCCCCC/C=C\CCCCCCCC(=O)O', 'CYP168A1 (Pseudomonas aeruginosa)', '155 nM'),
  ('CCCCCCCCCCCCCC(=O)O', 'CYP168A1 (Pseudomonas aeruginosa)', '249 nM'),
  ('CCCCCCCC/C=C\CCCCCCCC(=O)O', 'CYP168A1 (Pseudomonas aeruginosa)', '142 nM'),
  ('CCCCC/C=C\C/C=C\CCCCCCCC(=O)O', 'CYP168A1 (Pseudomonas aeruginosa)', '< 50 nM'),
  ('CCCCCCCCCCCCCCCC(=O)O', 'CYP168A1 (Pseudomonas aeruginosa)', '117 nM'),
  ('CCCCCCCCCCCCCCCCCC(=O)O', 'CYP168A1 (Pseudomonas aeruginosa)', '< 50 nM');

---

Target: CYP168A1 (Pseudomonas aeruginosa, UniProt Q9I107)
Settings: 100 μM substrate, 0.25 μM CYP168A1, 2.5 h at 37°C; mean of two replicates ± standard error
property-name: % Product, ω-1- carbon hydroxylated (%)

INSERT INTO results (compound, system_name, property_name, value) VALUES
  ('CCCCCCCCCCCCCCCC(=O)O [Palmitic acid, palmitic acid]', 'CYP168A1 (Pseudomonas aeruginosa, UniProt Q9I107)', '% Product, ω-1- carbon hydroxylated', 49),
  ('CCCCCC/C=C\CCCCCCCC(=O)O [Palmitoleic acid, palmitoleic acid]', 'CYP168A1 (Pseudomonas aeruginosa, UniProt Q9I107)', '% Product, ω-1- carbon hydroxylated', 15),
  ('CCCCCCCCCCCCCCCCCC(=O)O [Stearic acid, stearic acid]', 'CYP168A1 (Pseudomonas aeruginosa, UniProt Q9I107)', '% Product, ω-1- carbon hydroxylated', 41),
  ('CCCCCCCC/C=C\CCCCCCCC(=O)O [Oleic acid, oleic acid]', 'CYP168A1 (Pseudomonas aeruginosa, UniProt Q9I107)', '% Product, ω-1- carbon hydroxylated', 49),
  ('CCCCC/C=C\C/C=C\CCCCCCCC(=O)O [Linoleic acid, linoleic acid]', 'CYP168A1 (Pseudomonas aeruginosa, UniProt Q9I107)', '% Product, ω-1- carbon hydroxylated', 14),
  ('CCCCCCCCCCCCCC(=O)O [Myristic acid, myristic acid]', 'CYP168A1 (Pseudomonas aeruginosa, UniProt Q9I107)', '% Product, ω-1- carbon hydroxylated', 11);

---

Listing: pKd of selected molecules
Target: CYP168A1 (Pseudomonas aeruginosa, UniProt Q9I107)
Assay: Azole binding studies (spectral titration, type II difference spectra)
Conditions: read-out: apparent dissociation constant (Kd) of azole-CYP168A1 complex; 2 μM CYP168A1, rearranged Morrison equation, duplicate
pKd: −log10 of the molar value.
property-name: pKd

INSERT INTO results (molecule, property_name, value) VALUES
  ('C[C@@H](c1ncncc1F)[C@](O)(Cn1cncn1)c1ccc(F)cc1F', 'pKd', 5.69),
  ('Clc1ccc(COC(Cn2ccnc2)c2ccc(Cl)cc2Cl)c(Cl)c1 (stereo not drawn)', 'pKd', 6.72),
  ('CC(C)(C)C(O)(CCc1ccc(Cl)cc1)Cn1cncn1 (stereo not drawn)', 'pKd', 6.74);

---

Listing: Turnover no., ω-1- carbon hydroxylated of selected molecules
Molecular target: CYP168A1 (Pseudomonas aeruginosa, UniProt Q9I107)
Conditions: 100 μM substrate, 0.25 μM CYP168A1, 37°C; mean of two replicates ± standard error
property-name: Turnover no., ω-1- carbon hydroxylated (min⁻¹)

INSERT INTO assay_data (molecule, property_name, readout_unit, value) VALUES
  ('CCCCC/C=C\C/C=C\CCCCCCCC(=O)O [Linoleic acid, linoleic acid]', 'Turnover no., ω-1- carbon hydroxylated', 'min⁻¹', 0.35),
  ('CCCCCCCCCCCCCCCCCC(=O)O [Stearic acid, stearic acid]', 'Turnover no., ω-1- carbon hydroxylated', 'min⁻¹', 1.07),
  ('CCCCCC/C=C\CCCCCCCC(=O)O [Palmitoleic acid, palmitoleic acid]', 'Turnover no., ω-1- carbon hydroxylated', 'min⁻¹', 0.38),
  ('CCCCCCCCCCCCCC(=O)O [Myristic acid, myristic acid]', 'Turnover no., ω-1- carbon hydroxylated', 'min⁻¹', 0.27),
  ('CCCCCCCCCCCCCCCC(=O)O [Palmitic acid, palmitic acid]', 'Turnover no., ω-1- carbon hydroxylated', 'min⁻¹', 1.27);
